# assay.system: Integrin alpha-4/beta-1 (Homo sapiens, UniProt P05556+P13612)
# Sequence (P05556 whole entry): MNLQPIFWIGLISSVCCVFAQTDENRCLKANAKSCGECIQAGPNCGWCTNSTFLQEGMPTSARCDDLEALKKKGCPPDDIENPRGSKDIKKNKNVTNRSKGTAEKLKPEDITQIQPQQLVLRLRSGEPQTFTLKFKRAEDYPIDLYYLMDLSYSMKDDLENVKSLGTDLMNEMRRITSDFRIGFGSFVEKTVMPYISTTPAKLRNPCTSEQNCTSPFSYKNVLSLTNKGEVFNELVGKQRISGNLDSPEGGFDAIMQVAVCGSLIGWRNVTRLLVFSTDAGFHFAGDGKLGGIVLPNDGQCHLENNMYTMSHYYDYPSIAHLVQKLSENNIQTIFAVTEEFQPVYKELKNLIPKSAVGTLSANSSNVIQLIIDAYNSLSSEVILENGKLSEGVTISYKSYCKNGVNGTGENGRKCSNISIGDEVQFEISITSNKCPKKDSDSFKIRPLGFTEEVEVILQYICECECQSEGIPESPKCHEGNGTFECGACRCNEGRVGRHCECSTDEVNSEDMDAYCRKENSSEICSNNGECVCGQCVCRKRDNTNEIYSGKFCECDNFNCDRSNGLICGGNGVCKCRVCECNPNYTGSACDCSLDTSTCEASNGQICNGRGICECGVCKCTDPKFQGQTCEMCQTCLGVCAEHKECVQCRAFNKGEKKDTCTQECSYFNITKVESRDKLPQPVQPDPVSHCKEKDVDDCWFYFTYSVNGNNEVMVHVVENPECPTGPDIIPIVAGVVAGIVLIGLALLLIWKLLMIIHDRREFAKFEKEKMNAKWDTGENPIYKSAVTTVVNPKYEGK
# Sequence (P13612 whole entry): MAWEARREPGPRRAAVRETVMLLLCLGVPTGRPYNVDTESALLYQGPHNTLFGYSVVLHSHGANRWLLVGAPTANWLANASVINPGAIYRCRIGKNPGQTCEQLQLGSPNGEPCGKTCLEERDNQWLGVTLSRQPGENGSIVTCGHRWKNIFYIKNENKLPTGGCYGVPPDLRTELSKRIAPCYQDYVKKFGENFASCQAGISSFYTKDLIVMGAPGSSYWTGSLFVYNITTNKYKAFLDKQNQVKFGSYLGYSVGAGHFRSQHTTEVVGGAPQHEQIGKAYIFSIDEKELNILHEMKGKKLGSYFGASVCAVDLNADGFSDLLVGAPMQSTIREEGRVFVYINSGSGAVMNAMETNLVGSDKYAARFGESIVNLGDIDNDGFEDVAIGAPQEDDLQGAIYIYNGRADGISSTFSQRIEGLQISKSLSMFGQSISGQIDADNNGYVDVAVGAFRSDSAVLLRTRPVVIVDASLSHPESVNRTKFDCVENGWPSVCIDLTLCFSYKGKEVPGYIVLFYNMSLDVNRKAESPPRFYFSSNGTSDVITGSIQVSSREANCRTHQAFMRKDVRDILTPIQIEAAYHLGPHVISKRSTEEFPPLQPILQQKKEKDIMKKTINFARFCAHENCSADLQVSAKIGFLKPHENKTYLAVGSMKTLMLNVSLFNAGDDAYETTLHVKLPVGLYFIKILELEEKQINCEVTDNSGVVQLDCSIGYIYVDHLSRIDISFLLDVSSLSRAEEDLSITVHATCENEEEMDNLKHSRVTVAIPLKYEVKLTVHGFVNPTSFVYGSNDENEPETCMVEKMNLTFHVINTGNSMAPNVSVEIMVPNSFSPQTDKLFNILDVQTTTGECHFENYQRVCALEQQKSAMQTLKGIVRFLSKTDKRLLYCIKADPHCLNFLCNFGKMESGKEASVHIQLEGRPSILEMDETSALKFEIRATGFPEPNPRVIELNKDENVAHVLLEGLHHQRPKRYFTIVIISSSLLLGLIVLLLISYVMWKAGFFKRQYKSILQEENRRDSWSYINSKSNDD
# protocol.details: Inhibition of binding of Very late antigen 4/vascular cell adhesion molecule 1 in a protein-based ligand binding assay
# Assay type: protein-complex assay
recorded.metric: IC50 (nM)

Check out these entries, answers already filled in.
> print(dat)
                                smiles.data                              assay.system  recorded.metric  reported.measurement
1  O=C(Nc1ccc(C[C@H](/N=c2\c(O)c(O)\c2=N/C2CC2)C(=O)O)cc1)c1c(Cl)cncc1Cl  Integrin alpha-4/beta-1 (Homo sapiens, UniProt P05556+P13612)             IC50                   1.5
2  CCC/N=c1\c(O)c(O)\c1=N/[C@@H](Cc1ccc(-c2c(OC)cccc2OC)cc1)C(=O)O  Integrin alpha-4/beta-1 (Homo sapiens, UniProt P05556+P13612)             IC50                   2.1
3  CCN(CC)c1c(N[C@@H](Cc2ccc(-c3ccccc3OC)cc2)C(=O)O)c(=O)c1=O  Integrin alpha-4/beta-1 (Homo sapiens, UniProt P05556+P13612)             IC50                   1.2

(P) C=CC/N=c1\c(O)c(O)\c1=N/[C@@H](Cc1ccc(NC(=O)c2c(Cl)cncc2Cl)cc1)C(=O)O
(Q) O=C(Nc1ccc(C[C@H](/N=c2\c(O)c(O)\c2=N/Cc2ccccc2)C(=O)O)cc1)c1c(Cl)cncc1Cl
(R) CCCN(C)c1c(N[C@@H](Cc2ccc(NC(=O)c3c(Cl)cncc3Cl)cc2)C(=O)O)c(=O)c1=O
Query :: Let's sort these by IC50, smallest first. Go ahead? Answer with the labels in sequence, matching the requested order.
Result :: R, P, Q
(R: 0.2 nM, P: 1 nM, Q: 3.7 nM)

(1) CCCCC/N=c1\c(O)c(O)\c1=N/[C@@H](Cc1ccc(NC(=O)c2c(Cl)cncc2Cl)cc1)C(=O)O
(2) O=C(Nc1ccc(C[C@H](/N=c2\c(O)c(O)\c2=N/C2CCC2)C(=O)O)cc1)c1c(Cl)cncc1Cl
Query :: Smaller IC50 value, 1 vs 2 ? Choose, then provide that item's label.
Result :: 1
(1: 1 nM, 2: 2.6 nM)

---

# assay.system: Integrin alpha-4/beta-1 (Homo sapiens, UniProt P05556+P13612)
# protocol.details: Inhibition of binding of Very late antigen 4/vascular cell adhesion molecule 1 in a protein-based ligand binding assay
# Assay type: protein-complex assay
recorded.metric: IC50 (nM)

Check out these entries, answers already filled in.
> print(dat)
                                   compound                              assay.system  recorded.metric  unit.tag  reported.measurement
1  CN(C)c1c(N[C@@H](Cc2ccc(NC(=O)c3c(Cl)cncc3Cl)cc2)C(=O)O)c(=O)c1=O  Integrin alpha-4/beta-1 (Homo sapiens, UniProt P05556+P13612)             IC50        nM                   0.5
2  COCC/N=c1\c(O)c(O)\c1=N/[C@@H](Cc1ccc(NC(=O)c2c(Cl)cncc2Cl)cc1)C(=O)O  Integrin alpha-4/beta-1 (Homo sapiens, UniProt P05556+P13612)             IC50        nM                   1.2
3  CCCC/N=c1\c(O)c(O)\c1=N/[C@@H](Cc1ccc(NC(=O)c2c(Cl)cncc2Cl)cc1)C(=O)O  Integrin alpha-4/beta-1 (Homo sapiens, UniProt P05556+P13612)             IC50        nM                   0.4

(a) O=C(Nc1ccc(C[C@H](/N=c2\c(O)c(O)\c2=N/c2ccccc2)C(=O)O)cc1)c1c(Cl)cncc1Cl
(b) CCN(CC)c1c(N[C@@H](Cc2ccc(NC(=O)c3c(Cl)cncc3Cl)cc2)C(=O)O)c(=O)c1=O
Query :: Consider a and b . Which of these has its IC50 at a higher number? Choose, then provide that item's label.
Result :: a

(I) O=C(Nc1ccc(C[C@H](/N=c2/c(N3CCSCC3)c(O)c2=O)C(=O)O)cc1)c1c(Cl)cncc1Cl
(II) CC(C)C/N=c1\c(O)c(O)\c1=N/[C@@H](Cc1ccc(NC(=O)c2c(Cl)cncc2Cl)cc1)C(=O)O
Query :: Smaller IC50 value, I vs II ? Choose, then provide that item's label.
Result :: I

(a) O=C(Nc1ccc(C[C@H](/N=c2/c(N3CCNCC3)c(O)c2=O)C(=O)O)cc1)c1c(Cl)cncc1Cl
(b) CCN(CC)c1c(N[C@@H](Cc2ccc(Oc3ncccn3)cc2)C(=O)O)c(=O)c1=O
Query :: Smaller IC50 value, a vs b ? Choose, then provide that item's label.
Result :: a

(a) CCC/N=c1\c(O)c(O)\c1=N/[C@@H](Cc1ccc(NC(=O)c2c(Cl)cncc2Cl)cc1)C(=O)O
(b) O=C(Nc1ccc(C[C@H](/N=c2/c(N3CCOCC3)c(O)c2=O)C(=O)O)cc1)c1c(Cl)cncc1Cl
(c) CCN(C)c1c(N[C@@H](Cc2ccc(NC(=O)c3c(Cl)cncc3Cl)cc2)C(=O)O)c(=O)c1=O
Query :: List from greatest to least IC50. Answer with the labels in sequence, matching the requested order.
Result :: a, b, c
(a: 1.5 nM, b: 0.5 nM, c: 0.2 nM)

(a) CCC(C)/N=c1\c(O)c(O)\c1=N/[C@@H](Cc1ccc(NC(=O)c2c(Cl)cncc2Cl)cc1)C(=O)O (some centres not stated)
(b) CC(C)/N=c1\c(O)c(O)\c1=N/[C@@H](Cc1ccc(NC(=O)c2c(Cl)cncc2Cl)cc1)C(=O)O
(c) CC(C)(C)/N=c1\c(O)c(O)\c1=N/[C@@H](Cc1ccc(NC(=O)c2c(Cl)cncc2Cl)cc1)C(=O)O
(d) CCN(CC)c1c(N[C@@H](Cc2ccc(OCc3c(Cl)cccc3Cl)cc2)C(=O)O)c(=O)c1=O
Query :: List from greatest to least IC50. Answer with the labels in sequence, matching the requested order.
Result :: d, c, b, a
